Molecular target: Calmodulin-1 (Homo sapiens) (UniProt P0DP23)
Assay: calcium-bound CALM1 binders on microarrays, profiling panel, artefact control for SMM control-protein annotation, biochemical, small-molecule microarray, Cy5-labelled CALM1, plus calcium (AID 1112);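 also: score merges spot fluorescence with signal to noise from triplicate slides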
Settings: Cy5-CALM1 binding fluorescence, higher = more signal
property: composite z-score
Numbers only.

Study these solved cases before continuing.
{"columns": ["molecule", "data value"],
 "data": [
  ["C=CCNC(=O)[C@@H]1[C@H]2C(=O)O[C@H](c3ccccc3)[C@H](c3ccccc3)N2[C@H](c2ccc(OCCO)cc2)[C@@]12C(=O)Nc1ccccc12", -0.495],
  ["CCOC(=O)[C@H]1C[C@H]2O[C@@]23C[C@H]1C(=O)N1CCCC1[C@@H]3O[Si](C)(C)C(C)(C)C (stereo partly drawn)", -0.392],
  ["CC(C)Cc1ccc(CN2CC[C@@H](NS(=O)(=O)c3ccccc3)C2)cc1", -0.859],
  ["COCCOC(=O)N1C(=O)[C@@]2(c3cc(C#CCCO)ccc31)[C@H](C(=O)NC[C@H](O)c1ccccc1)[C@H]1C(=O)O[C@H](c3ccccc3)[C@H](c3ccccc3)N1[C@@H]2c1ccc(O)cc1", 0.262],
  ["COC(=O)c1c(CC[C@@H](CO)NC(=O)N[C@@H](Cc2ccccc2)Cn2cc(C3(O)CCCCC3)nn2)oc(C(C)=O)c1C(=O)OC", -0.36],
  ["CCOC(=O)C[C@H]1[C@H](OC(=O)c2ccccc2-c2ccccc2)[C@@H](NC(=O)c2ccc3ccccc3c2)c2cc(OCCCO)ccc2N1C(=O)c1ccc2ccccc2n1", -0.122],
  ["COc1ccc(C(O)C2C=CC3C(=O)N(C)C(=O)C3N2Nc2ccccc2)cc1OCc1ccccc1 (stereo not drawn)", 0.519],
  ["Cc1ccc(S[C@]2(C(=O)NC3CC3)CC(=O)N(C3CCCCC3)[C@@H]2c2ccc(CO)cc2I)cc1", 0.406]
]}

Field: composite z-score. Fill in for each record below.
1. CCCCC(CC)C(O)C1C=CC2C(=O)N(c3ccccc3)C(=O)C2N1Nc1ccccc1 (stereo not drawn)
2. COc1ccc(C#Cc2ccc3c(c2)[C@]2(C(=O)N3)[C@H](C(=O)NC[C@H](O)c3ccccc3)[C@H]3C(=O)O[C@H](c4ccccc4)[C@H](c4ccccc4)N3[C@@H]2c2ccc(OCCO)cc2)cc1
3. N#Cc1ccc(NN2C(C(O)c3cccs3)C=CC3C(=O)N(c4ccccc4)C(=O)C32)cc1 (stereo not drawn)
4. O=C1O[C@H](c2ccccc2)[C@H](c2ccccc2)N2[C@H]1[C@@H](C(=O)N1CCN(c3ncccn3)CC1)[C@]1(C(=O)Nc3ccccc31)[C@H]2c1ccc(OCCO)cc1
5. CCC[C@@H]1C=C(C(=O)O)[C@H](c2ccc(C)cc2)N1S(=O)(=O)c1ccc(C)cc1

(A)
1. 0.831
2. -0.203
3. 0.314
4. -0.802
5. 0.0233

Field: composite z-score. Fill in for each record below.
1. CN(C)CCCNC(=O)[C@@]1(Cc2ccccc2I)c2ccccc2C(=O)N(Cc2ccccc2C(F)(F)F)[C@H]1c1ccc(CO)cc1
2. CC(C)C(O)C1C=CC2C(=O)N(c3ccccc3)C(=O)C2N1Nc1ccc(C#N)cc1 (stereo not drawn)
3. O=C1O[C@@H](c2ccccc2)[C@@H](c2ccccc2)N2[C@@H](c3ccc(O)cc3)[C@]3(C(=O)Nc4ccc(C#CC5=CCCCC5)cc43)[C@@H](C(=O)O)[C@H]12
4. COCCOC(=O)N1C(=O)[C@@]2(c3cc(C#CCCO)ccc31)[C@H](c1ccc(O)cc1)N1[C@H](c3ccccc3)[C@H](c3ccccc3)OC(=O)[C@H]1[C@@H]2C(N)=O

(A)
[-0.149, 0.717, 0.999, 0.456]

Field: composite z-score. Fill in for each record below.
1. CC1CC/C=C\[C@H]2OC34C=CCN(Cc5ccccc5)C(=O)[C@H]3N(CCCCCO)C(=O)[C@@H]4C2C(=O)O1 (stereo partly drawn)
2. O=C(O)[C@H]1C[C@H]2C(=O)NCC(=O)N2[C@H]1c1ccc(O)cc1
3. C=CCC(OC(C)=O)[C@@H]1[C@@H](N(Cc2cccc3ccccc23)C(=O)c2ccc(C)cc2)c2cc(OCCCO)ccc2N1C(=O)Cc1ccc(OC)cc1 (stereo partly drawn)
4. O=C1OCC=C[C@H]2OC34C=CCN(c5ccc6ccccc6c5)C(=O)[C@H]3N(CCCO)C(=O)[C@@H]4[C@@H]12 (stereo partly drawn)
5. COc1ccc([Si](C)(C)[C@@H]2[C@@H](CCn3cc([C@H](O)c4ccccc4)nn3)O[C@]3(C(=O)N(Cc4cccc(N5CCOC5=O)c4)c4ccccc43)[C@H]2C)cc1
6. COCCOC(=O)N1C(=O)[C@@]2(c3cc(C#CCC(C(=O)OC)C(=O)OC)ccc31)[C@H](c1ccccc1OCCO)N1[C@H](c3ccccc3)[C@H](c3ccccc3)OC(=O)[C@H]1[C@@H]2C(N)=O
7. CN1C=C(C(=O)OCCS(C)(=O)=O)C(C(=O)OCCS(C)(=O)=O)=CC(CCCO)=CC1C1CC1 (stereo not drawn)
8. COCC(=C=CC[C@@H](O)c1ccc(CO)o1)CCO

(A)
[0.163, -0.0282, -0.0943, 0.172, 0.78, 0.648, -0.0416, -0.662]
